species on record: Homo sapiens; test: Selectivity for human DAT to human SERT
# maps each entry to its Ratio Ki

Use the examples below as a reference point.
Substance Smiles: CN(C)Cc1cc(Br)ccc1Sc1ccc(CO)cc1N
Ratio Ki: 762

Substance Smiles: CN(C)Cc1cc(F)ccc1Sc1ccc(CO)cc1N
Ratio Ki: > 1000

Substance Smiles: CN(C)Cc1ccccc1Sc1ccc(CO)cc1N
Ratio Ki: > 1000

Q. # Ratio Ki lookup, item CN(C)Cc1cc(I)ccc1Sc1ccc(CO)cc1N
A. > 1000

###

target: Sodium-dependent dopamine transporter (Homo sapiens)
Sequence (Q01959 whole entry): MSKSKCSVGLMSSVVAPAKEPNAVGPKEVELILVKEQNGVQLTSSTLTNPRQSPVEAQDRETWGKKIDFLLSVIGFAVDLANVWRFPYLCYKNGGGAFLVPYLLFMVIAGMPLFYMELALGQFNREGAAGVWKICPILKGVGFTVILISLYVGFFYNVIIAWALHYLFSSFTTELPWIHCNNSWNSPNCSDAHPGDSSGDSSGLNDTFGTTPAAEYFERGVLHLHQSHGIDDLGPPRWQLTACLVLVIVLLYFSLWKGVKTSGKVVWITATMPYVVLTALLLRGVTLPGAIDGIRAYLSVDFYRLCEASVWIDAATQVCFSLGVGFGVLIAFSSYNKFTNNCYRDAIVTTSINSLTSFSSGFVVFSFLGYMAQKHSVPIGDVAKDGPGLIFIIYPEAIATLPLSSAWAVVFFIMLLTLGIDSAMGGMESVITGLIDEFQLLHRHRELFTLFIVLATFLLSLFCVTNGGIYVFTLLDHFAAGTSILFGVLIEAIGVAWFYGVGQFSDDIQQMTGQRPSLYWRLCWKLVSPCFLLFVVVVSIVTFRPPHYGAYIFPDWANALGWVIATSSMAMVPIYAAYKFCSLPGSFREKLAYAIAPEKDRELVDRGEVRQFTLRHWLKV
# maps each entry to its Ki

Use the examples below as a reference point.
Substance Smiles: CN(C)Cc1cc(Br)ccc1Sc1ccc(CO)cc1N
Quantity Measured: Ki
Observed Result: 221 nM
--
Substance Smiles: CN(C)Cc1cc(F)ccc1Sc1ccc(CO)cc1N
Quantity Measured: Ki
Observed Result: > 2000 nM

Now for another entry.
Q. # Ki lookup, item CN(C)Cc1cc(I)ccc1Sc1ccc(CO)cc1N
A. > 2000 nM

###

# maps each entry to its Ratio Ki
species: Homo sapiens; test: Selectivity for human NET to human SERT
Respond using a number only.

Q. # Ratio Ki lookup, item CN(C)Cc1ccccc1Sc1ccc(CO)cc1N
A. 532

Q. # Ratio Ki lookup, item CN(C)Cc1cc(F)ccc1Sc1ccc(CO)cc1N
A. 490

###

These compounds were tested on Sodium-dependent noradrenaline transporter (Homo sapiens, UniProt P23975); pKi is the recorded read-out.
Sequence (P23975 whole entry): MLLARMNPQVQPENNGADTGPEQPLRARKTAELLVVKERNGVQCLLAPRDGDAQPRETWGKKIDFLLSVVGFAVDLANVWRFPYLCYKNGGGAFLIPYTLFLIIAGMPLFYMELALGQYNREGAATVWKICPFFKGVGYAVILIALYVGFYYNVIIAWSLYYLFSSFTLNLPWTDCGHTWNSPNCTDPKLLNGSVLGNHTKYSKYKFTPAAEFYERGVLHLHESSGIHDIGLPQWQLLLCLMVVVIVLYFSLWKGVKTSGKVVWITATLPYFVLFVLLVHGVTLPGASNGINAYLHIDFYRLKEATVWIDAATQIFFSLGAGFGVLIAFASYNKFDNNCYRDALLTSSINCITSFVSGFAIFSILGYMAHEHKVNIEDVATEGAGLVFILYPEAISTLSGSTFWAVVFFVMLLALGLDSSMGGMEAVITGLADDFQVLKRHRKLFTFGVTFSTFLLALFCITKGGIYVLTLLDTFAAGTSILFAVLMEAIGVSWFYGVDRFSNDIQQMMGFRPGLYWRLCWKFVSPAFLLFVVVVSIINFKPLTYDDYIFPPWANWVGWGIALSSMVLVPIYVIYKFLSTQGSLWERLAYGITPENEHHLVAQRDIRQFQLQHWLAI
pKi is a log-scale quantity: -log10 of the concentration expressed in molar.

Substance Smiles: CN(C)Cc1cc(Br)ccc1Sc1ccc(CO)cc1N
pKi: 6.14

Now for another entry.
Q. State its pKi on Sodium-dependent noradrenaline transporter (Homo sapiens, UniProt P23975): CN(C)Cc1cc(I)ccc1Sc1ccc(CO)cc1N
A. 6.33

###

# maps each entry to its logD
assay: Partition coefficient, log P at pH 7.4; format: physicochemical; settings: octanol/water
Respond using a number only.

Use the examples below as a reference point.
Substance Smiles: CN([11CH3])Cc1cc(Br)ccc1Sc1ccc(CO)cc1N
logD: 2.63
//
Substance Smiles: CN([11CH3])Cc1cc(F)ccc1Sc1ccc(CO)cc1N
logD: 2.06
//
Substance Smiles: CN([11CH3])Cc1cc(I)ccc1Sc1ccc(CO)cc1N
logD: 1.82

Q. # logD lookup, item CN(C)Cc1ccccc1Sc1ccc(CO)cc1N
A. 1.6
